The measured values listed here are drawn from a melting point compilation (Tetko et al.; mined from patent text by program, amines drawn as free bases though some values may be those of a salt).

Listing: melting point of selected molecules
MEASURED METRIC: melting point

• CCOC(=O)CCc1nnc(CNC(=O)c2ccc(Cl)c(Cl)c2)n1-c1sc(CC)cc1C(=O)c1ccccc1Cl = 153 to 155 °C
• O[C@H]1c2cc(OCc3ccc4cc(F)ccc4n3)ccc2OC[C@H]1Oc1cccnc1 = 163 to 164 °C
• COc1ccc(OCC(O)CN2CCN(C(N)=O)CC2)cc1 (stereo not given) = 192 to 195 °C
• Cc1c(OCc2ccccc2)cc(C(C)(C)C)cc1[N+](=O)[O-] = 77 to 79 °C
• COc1ccccc1Oc1coc(C(=O)O)cc1=O = 202 to 203 °C

---

Listing: melting point of selected compounds
MEASURED METRIC: melting point

• CC(C)(C)OC(=O)Nc1ccc(I)cc1[N+](=O)[O-] = 92 to 94 °C
• N#Cc1cc(N)c(Cl)c(N)c1 = 172 °C
• COC1=C(OC)C(=O)C(CCCCCCCCCCCCCO)=C(C)C1=O = 65 to 66 °C
• COCC1CN(c2cc3c(cc2F)c(=O)c(C(=O)O)cn3-c2ccc(F)cc2)CCN1 (configuration not stated) = 216 to 218 °C
• C[C@H](NC(=O)OC(C)(C)C)C(=O)N[C@H](CCC(=O)O)C(N)=O = 98 °C
• CNc1c([N+](=O)[O-])c(Br)nn1C = 185 °C
• CCOC(=O)C(C#N)=CNc1ncccc1Cl = 140 to 142 °C
• COc1ccc([C@H](O)[C@@H](Cc2ccc(C(F)(F)F)cc2)NC(=O)CCc2ccccc2)cc1 (racemic) = 116 to 117 °C
• COc1ccc(Sc2cccc(C(=O)O)c2)cc1 = 121 to 123 °C
• C=C(c1cc(F)ccc1OCc1ccc(-c2ccccc2)cc1)n1ccnc1 = 97 to 98 °C
• C=CCn1c(SCc2cnn(-c3c(Cl)cc(C(F)(F)F)cc3Cl)n2)nc(C#N)c1C#N = 125 to 127 °C
• CC(=O)OCC(C)C1CCC2C3CC=C4CC(OC(C)=O)CCC4(C)C3CCC12C (configuration not stated) = 125 to 127 °C
• CC(NC=O)c1ccc(Nc2nccc(-c3cccnc3)n2)cc1 (configuration not stated) = 118 to 121 °C
• CCC(CC)Cn1cc(C(=O)C(=O)O)c2cc(-c3ccc(OC(F)(F)F)cc3)ccc21 = 98 to 99 °C
• CN1CC2CCCC(C1)C2=NO = 111 to 112 °C
• COc1nc(C)nc(NC(=O)NS(=O)(=O)c2c(C)csc2C)n1 = 189 °C
• CC1(C)c2ccccc2C(C)(C)C1(S)CC(=O)O = 159 to 161 °C
• NS(=O)(=O)c1ccc(-c2cn(-c3nc(-c4ccc(Cl)cc4)cc(C(F)(F)F)n3)cn2)s1 = 284 °C
• COC(=O)c1cccc(NC(=O)c2ccc(OC)c(Nc3cccc(C(F)(F)F)c3)c2)c1 = 128 to 129 °C
• CC(C)OC(C)c1nnc(N)s1 (configuration not stated) = 129 to 135 °C
• O=c1[nH]c(=O)n(C2C=CC(CBr)O2)cc1C=CBr (configuration not stated) = > 150 °C
• C=CCSc1ncn(C(=O)N(CC=C)CC=C)n1 = 27 to 30 °C

---

Listing: melting point of selected compounds
MEASURED METRIC: melting point

- CC(C)Cn1c(=O)n(C)c(=O)c2c(OCCCO)c(Cc3cccnc3)sc21: 111 to 112 °C
- O=[N+]([O-])c1cccc([N+](=O)[O-])c1NCCO: 77 °C
- Fc1cc(OC2CCOCC2)c2c(Nc3c(Cl)ccc4c3OCO4)ncnc2c1: 209 to 212 °C
- C=CC(NC(C)=O)C(=O)NCc1ccccc1 (stereo unspecified): 136 to 138 °C
- CC(=O)OCc1nnc(N)s1: 191 to 192 °C
- OCCCNc1nnc(NCCCO)c2cc3ccccc3cc12: 225 to 228 °C
- COc1cc(OC)nc(Oc2cccc(O)c2C(=O)OCc2ccccc2)n1: 63 to 65 °C
- CC(=O)OC1CSC(Oc2cncc(-c3cccc(C#N)c3)c2)C(OC(C)=O)C1OC(C)=O (stereo unspecified): 130 to 131 °C
- O=S(=O)(NS(=O)(=O)OCC(F)(F)F)OCC(F)(F)F: 55 to 58 °C
- ClCC1CCN(C(c2ccccc2)c2ccccc2)CC1: 73 to 75 °C
- O=S1CSC(=C(c2ccc(F)cc2)c2ccc(F)cc2)SC1 (stereo unspecified): 155 to 156 °C

---

MEASURED METRIC: melting point

* Cc1cc(SCc2ccc3cn(-c4ccc(C(F)(F)F)cc4)nc3c2)ccc1OCC(=O)O | 142 to 144 °C
* Cc1cc([N+](=O)[O-])c(OCc2ccccc2)c(Cl)c1C | 74 to 75 °C
* CC(=O)Nc1ccc(C(=S)N2CCCCC2)cc1 | 202 to 203 °C
* Cc1[nH]cc(C#N)c1-c1ccc(Cl)cc1C(=O)c1ccccc1Cl | 206 to 208 °C
* CC1(C)CCC(C)(C)c2cc(NC(=O)c3ccc(C(=O)O)cc3O)ccc21 | 286 to 287 °C
* CC(SC1COC(c2ccc(C(=O)Nc3ccc(C#N)cc3)cc2F)OC1)C(O)(Cn1cncn1)c1ccc(F)cc1F (configuration not stated) | 110 °C
* CC(C)(C)CN1C(=O)C2CC(c3ccc(N)cc3)(C2)C1=O | 142 to 143 °C
* CCOC(=O)c1[nH]c2c(c1OCC1CO1)CCCC2 (configuration not stated) | 102 to 104 °C
* CCc1ncnc(NC2CCC3(CC2)OCC(CO)O3)c1Cl (configuration not stated) | 97 to 98 °C
* N#Cc1ccc2c(c1)c1cc(C#N)ccc1n2Cc1ccccc1 | 265 to 267 °C
* CCC(=O)c1c(C(=O)C(C)C)c2ccc(C(N)=O)cc2n1Cc1ccccc1Cl | 145 to 147 °C
* O=C(CS)Nc1ccc(C(=O)NCCO)cc1 | 184 to 186 °C
* C#CCS(=O)(=O)c1cc([N+](=O)[O-])ccc1Cl | 238 to 241 °C
* O=C(O)CCCC(=O)c1cc(-c2ccccc2)nc2ccccc12 | 136 °C
* CC(=O)N[C@H](CC(N)=O)C(=O)Nc1ccc(-c2ccc(C(=O)O)c(=O)[nH]2)cc1 | 265 to 266 °C
* O=C(O)COc1cccc2c1Cc1sc(SCC=Cc3ccccc3)nc1-2 | 172 to 174 °C
* Cn1cnc(C2C(Cl)=CC=CC2(F)Cc2ccc(Cl)cc2)n1 (configuration not stated) | 78.5 to 80.5 °C
* COc1ccc(C(=O)c2c(N)sc3c2CCSC3)cc1 | 178 to 179 °C
* CCOC(=O)C1=COc2cc(OC(C)=O)ccc2O1 | 88 °C
* CCOC(=O)C(=CNc1ccnn1Cc1ccco1)C(=O)OCC | 84 to 86 °C
* O=C1CCCCCC1=CC(=O)c1ccccc1 | 91 to 92 °C
* O=c1[nH]c2ccc([C@H]3CC[C@H](NCCCc4ccc(F)cc4)CC3)cc2[nH]1 | 336 to 339 °C

---

Listing: melting point of selected compounds
MEASURED METRIC: melting point

• CC(=O)c1oc2ccc(C)cc2c1C = 66.3 to 66.5 °C
• COC(=O)c1ccc2oc3c(c(=O)c2c1)CCC3=Cc1ccccc1C = 203 to 205 °C
• COc1ccc(OCC(O)CN2CCC(N3CCNC3=O)CC2)cc1 (stereo not given) = 148 to 150 °C
• CC1COC(C2CCC(O)C2)N1C(=O)c1ccccc1 (stereo not given) = 83 to 85 °C
• OC1(c2ccc(Cl)c(Cl)c2)c2ccccc2C2=NCCN21 (stereo not given) = 203 to 205 °C
• CCCC(=O)Nc1ccc(C(=O)Nc2ccc3cc(CN4CCCC4)cnc3c2C)cc1 = 192 to 194 °C
• O=[N+]([O-])c1ccc(Oc2ccc([N+](=O)[O-])cc2-c2ccc(C(F)(F)F)cc2C(F)(F)F)c(-c2ccc(C(F)(F)F)cc2C(F)(F)F)c1 = 72 to 73 °C
• COC(=O)c1ccc(C=CC=O)cc1 = 99 to 101 °C
• CCc1cccc2c3c([nH]c12)C(CC)(CC(N)=O)OCC3 (stereo not given) = 189 to 190 °C
• CCCCCc1nc2c(N)nc3ccccc3c2s1 = 119 to 121 °C

---

Listing: melting point of selected compounds
MEASURED METRIC: melting point

- N#Cc1c(N2CCc3ccccc3CC2)nc[nH]c1=O: 139 to 140 °C
- N=c1sc2cc(OC(F)(F)F)ccc2n1CCSCCCC(=O)c1ccccc1: 72 °C
- C=CCNc1ccc(N)cc1[N+](=O)[O-]: 80 to 83 °C
- O=[N+]([O-])c1nccn1CC(O)CN1CCCCC1 (stereo unspecified): 108 to 109 °C
- CCCC1(C(O)CCCN2CCC(N3Cc4ccccc4C3=O)CC2)c2ccccc2-c2ccccc21 (stereo unspecified): 75 to 78 °C
- C[C@@H]1Cc2cc3c(cc2C(c2ccc(N)cc2)=NN1c1ccccn1)OCO3: 128 to 130 °C
- O=C(N[C@H]1CC[C@H](CCN2CCN(c3nccc4c3CCO4)CC2)CC1)c1cnc(N2CCOCC2)cn1: 192 °C
- Oc1ccc(Cc2ncc[nH]2)cc1: 188 to 190 °C
- Cc1[nH]c(=O)sc1C(=O)c1ccc(N(C)C)cc1: 224 to 226 °C
- Nc1nc(N2CCC2)c2ncn(C3C=CC(CO)C3)c2n1 (stereo unspecified): 187 to 189 °C
- CCOC(=O)CC(NC(=O)c1ccc(Cl)cc1)C(=O)c1ccsc1 (stereo unspecified): 106 to 108 °C
